system: OVCAR-4 ovarian; assay: NCI tumour cell line growth inhibition, 48 h
Parameter: TGI. Scope: all listed entries.
measure_name: TGI

>>> print(df.to_string())
                                    compound  assay_value
 0  CC1CC(C)[C@H](O)C([C@H](O)CC2CC(=O)N(C)C(=O)C2)C1 (stereo partly drawn)     > 100 µM
 1      N=Nc1c(OC(=O)Nc2ccccc2)[nH]c2ccccc12      30.7 µM
 2  C#CCSc1nc(N)c2ncn(C3OC(CO)C(O)C3O)c2n1 (stereo not drawn)     > 100 µM
 3  O=C1c2cccc3cccc(c23)C(=O)N1CCCNCCCCNCCCN1C(=O)c2cccc3cccc(c23)C1=O      1.93 µM
 4  N#CCCN(CCC#N)C(=O)c1cccc(C(=O)N(CCC#N)CCC#N)c1     > 100 µM
 5  CCCCN(CCCC)c1ccc(C(=N)c2ccc(N(C)C)cc2)cc1      1.46 µM
 6         Cc1cc(Cc2cc(C)c(O)c(C)c2)cc(C)c1O     > 100 µM
 7  COC(=O)c1ccc(Oc2nc3ccccc3nc2-c2cccs2)cc1     > 100 µM
 8  CCC(CC)C(=O)OC[n+]1ccc(-c2c(COC(=O)NC(C)C)c(COC(=O)NC(C)C)c3n2CCC3)cc1     > 100 µM
 9  CCOC(=O)c1cc(/C=C/C(C)=C/C(=O)OC)oc1-c1ccccc1     > 100 µM
10  COc1ccc(C2=Nc3ccccc3SC(C)C2)cc1 (stereo not drawn)     > 100 µM
11  [N-]=[N+]=Nc1ccc(NCCCCCC(=O)ON2C(=O)CCC2=O)c([N+](=O)[O-])c1     > 100 µM
12  CC1CC(=O)Nc2cc(Cl)ccc2N1C(=O)C1CC1 (stereo not drawn)     > 100 µM
13                  CCCCSN1C(=O)c2ccccc2C1=S     > 100 µM
14  NC1=NC(c2ccc(Cl)cc2)N(c2ccc(S(=O)(=O)Nc3ncccn3)cc2)C(N)=N1 (stereo not drawn)     > 100 µM
15     COc1cc(/C=N/Nc2ncnc3c2cnn3C(C)C)ccc1O      > 25 µM
16  Nc1nc(Cl)c(N)c(NCC2(CO)CC(Cc3ccccc3)C2)n1 (stereo not drawn)     > 100 µM
17  COC(=O)Nc1nc2ccc(Oc3ccc4nc(NC(=O)OC)[nH]c4c3)cc2[nH]1     > 100 µM

Reference source for all entries: PubChem BioAssay (NCI)
